# tested system: T1, MPDZ_10, O75970
# T1 sequence (O75970 1624-1722, limits assumed, looked up): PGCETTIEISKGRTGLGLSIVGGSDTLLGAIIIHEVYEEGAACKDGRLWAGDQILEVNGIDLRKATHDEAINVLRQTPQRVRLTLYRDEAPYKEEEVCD
# test: holdup assay
# Set-up: key: below the threshold = too weak to quantify, mostly under pKd 3.1 to 4
# test conditions: plain residues with an end cap or a label only (N-terminal biotin on a linker: ado-ado)
observation type: pKd

NISARRFTLC [FAM167B, Q9BTA0]: below the threshold
NNMAFETTHF [SLC5A12, Q1EHB4]: below the threshold
EKPIDSETKM [SLC1A3, P43003]: below the threshold
PKSNSSKEYV [CLDN7, O95471]: below the threshold
GNDPDRGTSI [GRID2, O43424]: below the threshold

Q: Bench note: what pKd did PLPPEEESWV [GAS2L2, Q8NHY3] show?
Ans: below the threshold

Q: Bench note: what pKd did TNSKQGETTV [FZD1, Q9UP38] show?
Ans: below the threshold

Q: Bench note: what pKd did SSSVNVSSNL [CXCR1, P25024] show?
Ans: below the threshold

Q: Bench note: what pKd did SAGADSETHC [SLCO1B1, Q9Y6L6] show?
Ans: below the threshold

Q: Bench note: what pKd did MLPANYVEAI [NEB, P20929] show?
Ans: below the threshold

Q: Bench note: what pKd did QRYPGNQTTC [CCL24, O00175] show?
Ans: below the threshold
